Consider the following compounds and their measured relative viability readings.
Tested on: NCI-H2228
Assay: relative viability (nuclei count vs DMSO), 5 days (fraction); higher = more cells survive
Details: first compound 0.8 µM
Enter the number alone.

Sample records with relative viability:
>>> recorded_value("COc1nc(C)cnc1NS(=O)(=O)c1cccnc1-c1ccc(-c2nnco2)cc1 [Zibotentan] + Cc1nc(Nc2ncc(C(=O)Nc3c(C)cccc3Cl)s2)cc(N2CCN(CCO)CC2)n1 [Dasatinib] (partner 0.075 µM)")
0.495
>>> recorded_value("O=c1cc(-c2cccc3c2Sc2ccccc2S3)oc(N2CCOCC2)c1 + CCNC(=O)c1noc(-c2cc(C(C)C)c(O)cc2O)c1-c1ccc(CN2CCOCC2)cc1 [Luminespib] (partner 0.01 µM)")
0.129
>>> recorded_value("COc1nc(C)cnc1NS(=O)(=O)c1cccnc1-c1ccc(-c2nnco2)cc1 [Zibotentan] + COc1cccc2cc(-c3nc([C@H]4CC[C@H](C(=O)O)CC4)n4ncnc(N)c34)[nH]c12 [OSI-027] (partner 0.5 µM)")
0.484
>>> recorded_value("COc1nc(C)cnc1NS(=O)(=O)c1cccnc1-c1ccc(-c2nnco2)cc1 [Zibotentan] + CC1(C)CCC(c2ccc(Cl)cc2)=C(CN2CCN(c3ccc(C(=O)NS(=O)(=O)c4ccc(N[C@H](CCN5CCOCC5)CSc5ccccc5)c(S(=O)(=O)C(F)(F)F)c4)cc3)CC2)C1 [Navitoclax] (partner 0.5 µM)")
0.685
>>> recorded_value("O=c1cc(-c2cccc3c2Sc2ccccc2S3)oc(N2CCOCC2)c1 + C[C@]1(O)C[C@@H](c2nc(-c3ccc4ccc(-c5ccccc5)nc4c3)c3c(N)nccn32)C1 [Linsitinib] (partner 1 µM)")
0.826

Requested field: relative viability. Item: O=c1cc(-c2cccc3c2Sc2ccccc2S3)oc(N2CCOCC2)c1 + N=C(N)NC(=N)NCCc1ccccc1 [Phenformin] (partner 250 µM)
0.426

Now the same for COc1nc(C)cnc1NS(=O)(=O)c1cccnc1-c1ccc(-c2nnco2)cc1 [Zibotentan] + COc1cc2c(Oc3ccc(NC(=O)C4(C(=O)Nc5ccc(F)cc5)CC4)cc3F)ccnc2cc1OCCCN1CCOCC1 [Foretinib] (partner 0.25 µM)
0.889

Now the same for O=c1cc(-c2cccc3c2Sc2ccccc2S3)oc(N2CCOCC2)c1 + Nc1nc2[nH]cc(CCc3ccc(C(=O)N[C@@H](CCC(=O)O)C(=O)O)cc3)c2c(=O)[nH]1 [Pemetrexed] (partner 0.2 µM)
0.336

Now the same for O=c1cc(-c2cccc3c2Sc2ccccc2S3)oc(N2CCOCC2)c1 + CC(C)C[C@H](NC(=O)[C@H](Cc1ccccc1)NC(=O)c1cnccn1)B(O)O [Bortezomib] (partner 0.002 µM)
1.19

Now the same for COc1nc(C)cnc1NS(=O)(=O)c1cccnc1-c1ccc(-c2nnco2)cc1 [Zibotentan] + Cc1cc(Nc2cc(N3CCN(C)CC3)nc(Sc3ccc(NC(=O)C4CC4)cc3)n2)n[nH]1 [Tozasertib] (partner 0.1 µM)
0.212

Now the same for O=c1cc(-c2cccc3c2Sc2ccccc2S3)oc(N2CCOCC2)c1 + O=C(CCCCCCC(=O)Nc1ccccc1)NO [Vorinostat] (partner 1 µM)
0.76

---

Consider the following compounds and their measured relative viability readings.
Tested on: COR-L 105
Assay: relative viability (nuclei count vs DMSO), 5 days (fraction); higher = more cells survive
Conditions: first compound 0.1 µM
Enter the number alone.

>>> recorded_value("CCN(CC)CCCCNc1ncc2cc(-c3cc(OC)cc(OC)c3)c(NC(=O)NC(C)(C)C)nc2n1 + CS(=O)(=O)N1CCN(Cc2cc3nc(-c4cccc5[nH]ncc45)nc(N4CCOCC4)c3s2)CC1 [Pictilisib] (partner 1 µM)")
0.418
>>> recorded_value("CCN(CC)CCCCNc1ncc2cc(-c3cc(OC)cc(OC)c3)c(NC(=O)NC(C)(C)C)nc2n1 + CS(=O)(=O)CCNCc1ccc(-c2ccc3ncnc(Nc4ccc(OCc5cccc(F)c5)c(Cl)c4)c3c2)o1 [Lapatinib] (partner 2 µM)")
0.399
>>> recorded_value("O=c1cc(N2CCOCC2)oc2c(-c3cccc4c3sc3ccccc34)cccc12 + O=C(c1cc(Cc2n[nH]c(=O)c3ccccc23)ccc1F)N1CCN(C(=O)C2CC2)CC1 [Olaparib] (partner 8 µM)")
0.687
>>> recorded_value("CCN(CC)CCCCNc1ncc2cc(-c3cc(OC)cc(OC)c3)c(NC(=O)NC(C)(C)C)nc2n1 + N=C(N)NC(=N)NCCc1ccccc1 [Phenformin] (partner 250 µM)")
0.47
>>> recorded_value("O=c1cc(N2CCOCC2)oc2c(-c3cccc4c3sc3ccccc34)cccc12 + CCNC(=O)c1noc(-c2cc(C(C)C)c(O)cc2O)c1-c1ccc(CN2CCOCC2)cc1 [Luminespib] (partner 0.01 µM)")
0.758

# evaluate next
Requested field: relative viability. Item: O=c1cc(N2CCOCC2)oc2c(-c3cccc4c3sc3ccccc34)cccc12 + CC(C)C[C@H](NC(=O)[C@H](Cc1ccccc1)NC(=O)c1cnccn1)B(O)O [Bortezomib] (partner 0.002 µM)
0.769
